Test: gradient 5% acetonitrile 3 min, to 50% in 2 min, to 85% in 15 min, held 3 min, 100 µL/min
Conditions: column: Zorbax Extend-C18 2.1 x 50 mm; eluents: water / acetonitrile, 0.1% formic acid
result type: RP-LC retention time (s)
Give bare numbers, in s.

Some compounds with known RP-LC retention time results, for comparison:
compound	result type	value observed
COC(=O)Nc1nc(CC(=O)NCc2cn3ccccc3n2)cs1	RP-LC retention time	617
Cc1cc(C)c(NC(=O)Cn2nc3c4ccccc4ncn3c2=O)c(C)c1	RP-LC retention time	671
CC1CCC(NC(=O)C2CCN(C(=O)c3ncn4c3COC(c3ccc(F)cc3)C4)CC2)CC1 (stereo not given)	RP-LC retention time	826

# return RP-LC retention time for each item in the list
1. O=C(CN1C(=O)C2CCCCN2C(=O)c2ccccc21)Nc1ccc(C(F)(F)F)cc1 (stereo not given)
2. COc1cccc(-c2nnc(Cc3nc(-c4cccc(Cl)c4)no3)o2)c1

[890, 1090]

----------
Assay: gradient 5% acetonitrile 3 min, to 50% in 2 min, to 85% in 15 min, held 3 min, 100 µL/min
Conditions: column: Zorbax Extend-C18 2.1 x 50 mm; eluents: water / acetonitrile, 0.1% formic acid
Returns the class for an entry based on its RP-LC retention time. Class ranges: bottom: < 700 s; middle: ≥ 700 s and < 900 s; top: ≥ 900 s

See these solved cases before continuing.
record smiles	discrete label
CC(C)Oc1ccc(CNS(=O)(=O)c2cc3c(s2)CCN(C(=O)C2CCC2)C3)cc1	top
COc1ccc2c(=O)c3c(=O)n(Cc4ccccc4)c(-c4cccs4)nc3oc2c1	middle
Fc1ccc(CN2CC(F)(F)C[C@H]2COc2cccnc2)c(Cl)c1	middle
CCc1ccc(-c2cn3ccn(-c4ccc(OC)c(OC)c4)c(=O)c3n2)cc1	middle
CONC(=O)Cc1csc(Nc2cc(C)ccn2)n1	bottom
Cc1ccc(C2=NC3(CCN(C(=O)COc4ccc(Cl)cc4)CC3)ON2)cc1	top

In plain terms, what class is O=C(c1cccs1)N1CCC(c2nncn2Cc2ccccc2)CC1 ?
bottom

In plain terms, what class is C=CCN1C(=O)C(C)(C)COc2cc(NC(=O)c3cccc(OC)c3OC)ccc21 ?
top

In plain terms, what class is CCCCC(=O)Nc1ccc2c(c1)nc(CN1CCN(C)CC1)n2C(C)C ?
bottom

----------
Assay: gradient 5% acetonitrile 3 min, to 50% in 2 min, to 85% in 15 min, held 3 min, 100 µL/min
Conditions: column: Zorbax Extend-C18 2.1 x 50 mm; eluents: water / acetonitrile, 0.1% formic acid
result type: RP-LC retention time (s)
Numbers only, in s.

molecule	RP-LC retention time, s
Cc1ccc(NC(=O)Cn2c(=O)n(-c3ccccc3)c(=O)c3c2cc(C)n3C)cc1	827
Cc1ccc(NC(=O)N2CCN(CCn3c(C(F)(F)F)nc4cccnc43)CC2)cc1	648
O=C(NC1CCCC1)C1c2ccccc2CC(=O)N1Cc1ccccc1 (configuration not stated)	856
O=C(NCCc1ccccc1)N1CCCC1c1nc(-c2ccccc2)no1 (configuration not stated)	922
CCNC(=O)N1CCC(OC2CCN(Cc3ccccc3)CC2)CC1	570
Cc1c(C(=O)N2CCSCC2)cnn1-c1ccc(-c2nc(C3CC3)no2)cn1	960

Shift focus to the following entry.
Tell me measured RP-LC retention time for NS(=O)(=O)c1ccc(CCNCc2ccc(-c3cccc(Cl)c3)o2)cc1 please.
675

----------
Assay: gradient 5% acetonitrile 3 min, to 50% in 2 min, to 85% in 15 min, held 3 min, 100 µL/min
Details: column: Zorbax Extend-C18 2.1 x 50 mm; eluents: water / acetonitrile, 0.1% formic acid
Values of RP-LC retention time strictly less than 700 s map to 1.0, and values of at least 700 s map to 0.0.

Answer whether the compound Cn1nc(-c2nc(-c3ccccc3F)no2)c2c1CCN(C(=O)NC(C)(C)C)C2 has RP-LC retention time strictly less than 700 s
1.0

Answer whether the compound CCCNc1cc(N2CCC(CCC(=O)NCCc3cccnc3)CC2)ncn1 has RP-LC retention time strictly less than 700 s
1.0

Answer whether the compound Cc1cnc(C2CC2)n1C1CCN(Cc2ccc(F)cc2F)C1 (centres undefined) has RP-LC retention time strictly less than 700 s
1.0

Answer whether the compound Cc1nn(Cc2nc(-c3ccc(NC(=O)C4CCCC4)cc3)oc2C)c(C)c1C has RP-LC retention time strictly less than 700 s
0.0

Answer whether the compound CCn1c(C(=O)N2CCN(c3ccccn3)CC2)cc2c(=O)oc3ccccc3c21 has RP-LC retention time strictly less than 700 s
1.0

Answer whether the compound CCc1ccc(C(C)NC(=O)c2nnc(-c3ccc(S(=O)(=O)N(C)C)cc3)o2)cc1 (centres undefined) has RP-LC retention time strictly less than 700 s
0.0

----------
Assay: gradient 5% acetonitrile 3 min, to 50% in 2 min, to 85% in 15 min, held 3 min, 100 µL/min
Conditions: column: Zorbax Extend-C18 2.1 x 50 mm; eluents: water / acetonitrile, 0.1% formic acid
Assign RP-LC retention time to each entry below.
Answers are plain numbers, in s.

Some molecules with known RP-LC retention time results, for comparison:
record smiles	value observed
COc1cc(C(=O)Nc2cccc(N3CCCS3(=O)=O)c2)c([N+](=O)[O-])cc1OC	681
CC(C)(Oc1ccc(Cl)cc1)C(=O)NCc1nnnn1C1CCCCC1	945
COc1ccc(OC)c(S(=O)(=O)Nc2ccc(-c3cn4ccc(C)nc4n3)cc2)c1	642

Tell me measured RP-LC retention time for C=Cc1ccc(Cn2cc(S(=O)(=O)N3CCCCCC3)ccc2=O)cc1 please.
1020

----------
Experiment: gradient 5% acetonitrile 3 min, to 50% in 2 min, to 85% in 15 min, held 3 min, 100 µL/min
Conditions: column: Zorbax Extend-C18 2.1 x 50 mm; eluents: water / acetonitrile, 0.1% formic acid
result type: RP-LC retention time

Some molecules with known RP-LC retention time results, for comparison:
molecule	value observed
CCc1cc(=O)n(CC(=O)Nc2ccccc2CC)c(N2CCOCC2)n1	784 s
CCOC(=O)c1c(S(=O)(=O)N2CCC(C(=O)NCc3ccccc3Cl)CC2)c(C)n(C)c1C	862 s
Cc1oc(C(C)C)nc1C(=O)NCc1ccc(C(F)(F)F)cc1	1060 s
Cc1nn(CC(=O)N2CCCC2)c(=O)c2nc(C(C)C)sc12	680 s

# return RP-LC retention time for each item in the list
1. CCNC(=O)C1CCCN(c2nc3ncn(CC(=O)NCCC4=CCCCC4)c(=O)c3s2)C1 (stereo unspecified)
2. O=C(CSc1ccncc1)N1CCCn2nc(-c3ccc(Cl)cc3)cc2C1

1. 692 s
2. 661 s

----------
Assay: gradient 5% acetonitrile 3 min, to 50% in 2 min, to 85% in 15 min, held 3 min, 100 µL/min
Conditions: column: Zorbax Extend-C18 2.1 x 50 mm; eluents: water / acetonitrile, 0.1% formic acid
Label Yes when RP-LC retention time is at or above 800 s; anything below gets No.

I'd appreciate it if you could say whether O=C(Cn1cnc2nc(N3CCCC(C(=O)NC4CC4)C3)sc2c1=O)NCc1cccs1 (stereo unspecified) has RP-LC retention time at least equal to 800 s.
No

I'd appreciate it if you could say whether CC1(C(=O)NCc2ccccc2)CCN(S(=O)(=O)c2ccc(C3CCCCC3)cc2)CC1 has RP-LC retention time at least equal to 800 s.
Yes

I'd appreciate it if you could say whether COC(=O)c1ccc(-c2csc(NC(=O)c3c(F)cccc3Cl)n2)cc1 has RP-LC retention time at least equal to 800 s.
Yes

----------
Experiment: gradient 5% acetonitrile 3 min, to 50% in 2 min, to 85% in 15 min, held 3 min, 100 µL/min
Conditions: column: Zorbax Extend-C18 2.1 x 50 mm; eluents: water / acetonitrile, 0.1% formic acid
Returns the class for an entry based on its RP-LC retention time. Class ranges: range 1 (below 700 s), range 2 (700 s to below 1000 s), range 3 (1000 s or more)

See these solved cases before continuing.
compound	discrete label
Cn1c(=O)c(N2CCCC(C(=O)NCCCN3CCCCCC3)C2)nc2cccnc21 (centres undefined)	range 1
COC(=O)c1c(NCc2ccccc2C(F)(F)F)c2cccc(Cl)c2[nH]c1=O	range 2
O=C(CN1C(=O)CCc2cc(Br)ccc21)NCCN1CCc2ccccc2C1	range 1
Cn1c(N2CCC(C(=O)Nc3ccc(Cl)cc3)CC2)cc(=O)n(C)c1=O	range 2
CCc1nc2cc(N3CCC(C(=O)NC(C)c4ccccn4)CC3)cnc2nc1CC (centres undefined)	range 1
O=C(CCc1cc2ccccc2[nH]c1=O)NCCN1CCc2ccccc2C1	range 1

In plain terms, what class is COC(=O)c1cc(OCC(=O)Nc2ccc(OC)c(Cl)c2)c2ccccc2n1 ?
range 2

In plain terms, what class is Cc1cc(=O)n(CC(=O)Nc2ccc(F)c(Cl)c2)c(-c2ccccc2)n1 ?
range 3

Each recorded value in this set is attributed to the METLIN SMRT retention time set (Domingo-Almenara et al. 2019).
